From: the Immune Epitope Database (IEDB)

- assay-target: HLA-A*03:01
- test-details: IEDB peptide-MHC binding, purified MHC/competitive/radioactivity; filed as Kd, often an IC50 or EC50 that approximates it; bounds were set here for any values at or beyond the usual limits of such assays
- setup-conditions: source organism: Lassa virus GA391

{"chain-sequence": "SLMSIISTFH", "assay-target": "HLA-A*03:01", "Kd (nM)": 850}

---

- assay-target: HLA-B*15:01
- test-details: IEDB peptide-MHC binding, purified MHC/competitive/fluorescence; filed as Kd, often an IC50 or EC50 that approximates it; bounds were set here for any values at or beyond the usual limits of such assays
- setup-conditions: source organism: Yersinia pseudotuberculosis IP 31758

{"chain-sequence": "RQMRASAPL", "Kd": "0.145 µM"}
